Hello, the source for this data is PubChem BioAssay AID179, in case you need it.

# IC50 annotations
System: CEM cells HIV-1 protection, formazan growth assay
Experiment: NCI AIDS Antiviral Assay
Conditions: measured here: growth of uninfected CEM cells
readoutKind: IC50 (µM)

compound	systemTested	valueRelationSign	readoutNumber
CC(=O)O[C@@H]1[C@H](OC2CCCCC2(c2ccccc2)c2ccccc2)O[N+]([O-])=CC12CCCCC2 (stereo partly specified)	CEM cells HIV-1 protection, formazan growth assay	=	2.69
Nc1ccn(C2OC(CO)CC2F)c(=O)n1 (stereo unspecified)	CEM cells HIV-1 protection, formazan growth assay	=	7.08
C/C(=C\c1ccccc1)n1c(=O)cc(C)n1C	CEM cells HIV-1 protection, formazan growth assay	>	200
O=C(/C=C/c1ccc(O)c(O)c1)NCCOC(=O)/C=C/c1ccc(O)c(O)c1	CEM cells HIV-1 protection, formazan growth assay	=	8.51
CC(=NCCN(CCN=C(C)c1c(O)cc(C)oc1=O)CCN=C(C)c1c(O)cc(C)oc1=O)c1c(O)cc(C)oc1=O	CEM cells HIV-1 protection, formazan growth assay	>	200
O=C1N(C2CCCCC2)CC2(Cc3ccccc3)c3ccccc3NC12O (stereo unspecified)	CEM cells HIV-1 protection, formazan growth assay	>	20
N#CCCN(CCCN(C(=O)N(c1ccccc1)c1ccccc1)c1ccccc1)C(=O)Nc1ccccc1	CEM cells HIV-1 protection, formazan growth assay	=	10.5
Cc1cc(O)c2c(c1)C(=O)C=C(Br)C2=O	CEM cells HIV-1 protection, formazan growth assay	=	1.58
O=CC(O)C(O)C(O)C(O)COP(=O)(O)Cc1ccccc1 (stereo unspecified)	CEM cells HIV-1 protection, formazan growth assay	>	200
Cc1cnc2cc(Cl)ccc2c1NCCN(CC(C)C)CC(C)C	CEM cells HIV-1 protection, formazan growth assay	>	1
CCN(CC)CCC(=O)NC1c2ccccc2Sc2c(C)cccc21 (stereo unspecified)	CEM cells HIV-1 protection, formazan growth assay	=	44.7
